Target: human ether-à-go-go-related gene (hERG) potassium channel (human)
Sequence (Q12809 whole entry, looked up): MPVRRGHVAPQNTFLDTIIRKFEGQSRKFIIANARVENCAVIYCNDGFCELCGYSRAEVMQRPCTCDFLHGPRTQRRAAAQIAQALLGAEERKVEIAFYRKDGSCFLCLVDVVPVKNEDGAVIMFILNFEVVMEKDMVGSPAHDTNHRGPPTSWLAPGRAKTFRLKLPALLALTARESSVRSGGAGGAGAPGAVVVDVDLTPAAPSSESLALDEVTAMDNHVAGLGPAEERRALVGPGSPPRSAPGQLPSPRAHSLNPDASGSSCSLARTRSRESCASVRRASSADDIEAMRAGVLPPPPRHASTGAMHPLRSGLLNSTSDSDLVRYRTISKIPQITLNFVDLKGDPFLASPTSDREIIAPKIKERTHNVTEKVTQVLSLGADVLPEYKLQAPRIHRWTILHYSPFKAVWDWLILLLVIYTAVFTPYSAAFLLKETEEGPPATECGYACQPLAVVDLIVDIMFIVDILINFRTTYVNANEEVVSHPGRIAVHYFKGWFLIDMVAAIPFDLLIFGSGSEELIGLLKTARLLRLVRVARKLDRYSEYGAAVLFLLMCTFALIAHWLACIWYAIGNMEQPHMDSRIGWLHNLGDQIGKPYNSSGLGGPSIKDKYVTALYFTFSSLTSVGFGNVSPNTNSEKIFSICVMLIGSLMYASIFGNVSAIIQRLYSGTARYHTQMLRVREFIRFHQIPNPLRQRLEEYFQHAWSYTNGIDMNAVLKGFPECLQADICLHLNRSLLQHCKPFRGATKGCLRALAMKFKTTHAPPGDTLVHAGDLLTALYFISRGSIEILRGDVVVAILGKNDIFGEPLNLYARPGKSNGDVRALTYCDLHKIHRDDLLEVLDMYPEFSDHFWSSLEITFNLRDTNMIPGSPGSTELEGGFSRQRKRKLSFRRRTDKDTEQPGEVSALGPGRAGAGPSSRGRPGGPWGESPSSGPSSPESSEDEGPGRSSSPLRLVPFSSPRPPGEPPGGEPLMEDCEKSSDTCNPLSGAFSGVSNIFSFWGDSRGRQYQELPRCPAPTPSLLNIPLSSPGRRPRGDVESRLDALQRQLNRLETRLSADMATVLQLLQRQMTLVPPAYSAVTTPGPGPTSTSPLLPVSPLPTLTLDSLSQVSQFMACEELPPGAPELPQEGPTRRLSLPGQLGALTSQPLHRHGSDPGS
Assay: primary screen, population patch clamp on CHO cells stably expressing hERG; higher = less effect of the substance
The campaign covered roughly 310,000 compounds. About 2,200 (0.71%) showed an effect of 50% or more. The effect is printed as a negative number. Shown is part of a subset that was picked to be rich in strong results.
In this section, each of the compounds is paired with its reported hERG current change (%, negative = inhibition) at 1uM.
quantity.kind: hERG current change (%, negative = inhibition) at 1uM (%)

compound	reported.value
COc1ccc(/C=C(/NC(=O)c2ccccc2)C(=O)N2CCCCC2)cc1	6.93
CCCCCn1c(N)c(C(=O)NCCN2CCOCC2)c2nc3ccccc3nc21	-0.506
CSc1oc(-c2cccs2)nc1S(=O)(=O)c1ccccc1	4.25
COc1ccc(CCNc2nc(-c3cccnc3)cs2)cc1OC	23.6
CN1CCN(C(=O)/C(C#N)=C/c2ccc(F)cc2)CC1.Cl	1.43
COc1ccc(/C=C(/NC(=O)c2ccccc2)C(=O)N2CCCC2)cc1	6.1
COc1ccc(CCNC(=O)Cn2c([N+](=O)[O-])cnc2C)cc1OC	8.24
Cc1cccc(C(=O)NC(=S)Nc2ccccc2C(=O)O)c1	6.08
O=C1CC(Nc2ccc(N3CCOCC3)cc2)C(=O)N1c1ccccc1F (stereo not drawn)	3.19
CN1CCN(C(=O)/C(=C/c2ccc(F)cc2)NC(=O)c2ccccc2)CC1	-80.8
CCOC(=O)N1CCN(C(=O)/C(=C/c2ccc(OC)cc2)NC(=O)c2ccccc2)CC1	-27.1
CCOC(=O)N1CCN(C(=O)/C(=C/c2ccc(Br)cc2)NC(=O)c2ccc(OC)cc2)CC1	-81.5
CCOC(=O)N1CCN(C(=O)/C(=C/c2cccc3ccccc23)NC(=O)c2ccc(OC)cc2)CC1	-10.5
CSc1ccc(C2CC(=O)Nc3nc(SC)[nH]c(=O)c32)cc1 (stereo not drawn)	17
COC(=O)c1ccc(N2CCCCC2)c(NS(=O)(=O)c2ccc(C)cc2)c1	12.6
